All values here come from patent US20090042785A1.

Here the recorded koff is given for each entry.
- system_tested: T1, human CTLA-4-Fc (Chimerigen) (human, UniProt P16410 36-161; P01857 99-330 = IgG part, limits assumed)
- T1 construct: extracellular domain;domain: Fc portion; Bought protein; also called hCTLA-4-Fc; huCTLA-4-Ig
- procedure_summary: SPR as in Example 9
The reply should be a number in s⁻¹, with the unit left off.

Query: koff; subject: hNGAL mutein S140.2-P24 (designed binder, tagged entry not tied to the name; not shown: N-terminal T7 detection tag from vector phNGAL37; C-terminal Strep-tag II from vector phNGAL37) QDSTSDLIPAPPLSKVPLQQNFQDNQFHGKWYVVGLAGNRILRDDQHPMDMYATIYELKEDKSYNVTSVISSHKKCEYTIATFVPGSQPGEFTLGNIKSYGDKTSYLVRVVSTDYSQYAVVFFKLAEDNAEFFAITIYGRTKELASELKENFIRFSKSLGLPENHIVFPVPIDQCIDG 0.00028

Query: koff; subject: hNGAL mutein S140.4-O10 (designed binder, also called Onc I-002) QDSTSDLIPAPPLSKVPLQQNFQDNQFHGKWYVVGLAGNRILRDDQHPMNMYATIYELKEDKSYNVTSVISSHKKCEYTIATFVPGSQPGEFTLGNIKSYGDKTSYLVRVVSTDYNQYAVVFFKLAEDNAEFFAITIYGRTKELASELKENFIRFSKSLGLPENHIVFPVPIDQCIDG 0.000221

Query: koff; subject: hNGAL mutein S140.4-O10 without T7 tag (designed binder, also called S140.4-O10 (-T7 tag); S140.4-O10(-T7)) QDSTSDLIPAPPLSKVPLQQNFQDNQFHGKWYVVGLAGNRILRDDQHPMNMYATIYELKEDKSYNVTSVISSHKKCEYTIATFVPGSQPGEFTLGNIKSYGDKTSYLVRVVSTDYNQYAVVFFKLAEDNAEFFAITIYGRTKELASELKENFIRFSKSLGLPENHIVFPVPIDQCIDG 0.000108
